- protocol notes: inhibitors of hydroxyurea-induced Chk1 phosphorylation, primary screen, imaging, HeLa, phospho-Chk1 nuclear intensity (AID 1187); also: test concentration not given here
- condition info: hydroxyurea-induced phospho-Chk1 immunofluorescence imaging, higher = more signal
measured quantity: z-score
Please respond with just the number, no unit label.

The examples below pair each entry with its known result.
{"columns": ["compound", "z-score"],
 "data": [
  ["[N-]=[N+]=Nc1ccccc1[C@H]1OC(c2ccc(OCCCO)cc2)=N[C@@]1(CCS(=O)(=O)c1ccccc1)C(=O)NCCN1CCOCC1", 0.812],
  ["COC(=O)[C@@]1(Cc2ccccc2)[C@H]2c3cc(C(=O)N(C)C)n(CCc4ccc(O)c(OC)c4)c3C[C@H]2CN1C(=O)c1ccccc1", 0.652]
]}

In: I have this compound here, COC(=O)c1c2oc(c1C(=O)OC)C(=O)N(C)Cc1cn(nn1)C[C@H](Cc1ccccc1)NC(=O)N[C@H](CO)CC2 , and I need its recorded z-score.
Out: 0.723

In: Also need CCOC(=O)C[C@H]1[C@H](OC(=O)c2cc3ccccc3oc2=O)[C@@H](NC(=O)Cc2ccc(OC)cc2)c2cc(OCCCO)ccc2N1C(=O)c1ccc2ccccc2n1 , thanks.
Out: 0.203

In: Also need O=C1N(Cc2ccccc2)c2ccccc2[C@@H]2OC(c3ccc(OCCCO)cc3)=N[C@]12Cc1ccccc1 , thanks.
Out: -0.321

In: Also need C=C(/C(=C/C[C@H](OC(C)=O)c1cccc(OCCO)c1)c1cnc2ccccc2c1)C(C)C , thanks.
Out: -0.139

In: Also need CCCC[C@@H]1C[C@H]1[C@@H](NC(=O)c1cccs1)c1ccc(C(F)(F)F)cc1 , thanks.
Out: 0.516

---

Listed here: items and their measured z-score.
- protocol notes: modulators of HCV replicon luciferase signal, primary screen, HCV replication inhibitor project, Huh7 cells, luciferase reporter (AID 1109);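 also: huh7 hepatoma cells harbouring a luciferase neomycin HCV replicon reporter; luciferase luminescence as measure of HCV replicon replication; test concentration not given here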
- condition info: 48 h, higher = more signal

The examples below pair each entry with its known result.
{"columns": ["molecule", "reported value"],
 "data": [
  ["CCOC(=O)C1CCCCN1 (centres undefined)", 0.417],
  ["COCCOC(=O)N1C(=O)[C@@]2(c3cc(C#CC4=CCCCC4)ccc31)[C@H](C(N)=O)[C@H]1C(=O)O[C@H](c3ccccc3)[C@H](c3ccccc3)N1[C@@H]2c1ccccc1OCCO", -3.15]
]}

In: I have this molecule here, COC(=O)[C@@]1(Cc2ccc(F)cc2)[C@H]2c3cc(C(=O)N4CCCC4)n(CCc4ccc(O)c(O)c4)c3C[C@H]2CN1C(=O)c1ccccc1 , and I need its recorded z-score.
Out: -1.79

In: Also need CN(C)C(=O)[C@@]1(Cc2ccccc2CN=[N+]=[N-])N=C(c2ccc(OCCCO)cc2)O[C@H]1c1ccccc1CN=[N+]=[N-] , thanks.
Out: -2.63

---

Listed here: items and their measured z-score.
- protocol notes: PSAC antagonists in infected red cells, primary screen, cell-based, P. falciparum Indochina, OD700, 18 h (AID 1157)
- condition info: P. falciparum Indochina infected erythrocytes, osmotic lysis OD700, 18 h; higher = more signal, called active from +8 up or from −8 down
Please respond with just the number, no unit label.

{"columns": ["compound", "z-score"],
 "data": [
  ["CN1C(=O)C2C=CC(C(O)c3ccccn3)N(N(c3ccccc3)c3ccccc3)C2C1=O (stereo not drawn)", 1.05],
  ["CN(C)CCCNC(=O)[C@@]1(c2ccc([N+](=O)[O-])cc2)CC(=O)N(CC23CC4CC(CC(C4)C2)C3)[C@@H]1c1ccc(CO)cc1I", 0.352],
  ["CN1C(=O)C2C=CC(C(O)COCc3ccccc3)N(N(c3ccccc3)c3ccccc3)C2C1=O (stereo not drawn)", 1.07],
  ["CC(=O)c1ccc(C(O)C2C=CC3C(=O)N(c4ccccc4)C(=O)C3N2Nc2ccc(C#N)cc2)cc1 (stereo not drawn)", 1.44],
  ["[N-]=[N+]=Nc1ccccc1[C@@H]1OC(c2ccc(OCCCO)cc2)=N[C@]1(Cc1ccccc1)C(=O)NCC(O)CO (stereo partly drawn)", 6.87]
]}

In: I have this compound here, O=C1C2C=CC(C(O)c3ccccc3)N(Nc3ccccc3F)C2C(=O)N1c1ccccc1 (stereo not drawn) , and I need its recorded z-score.
Out: 0.632

In: Also need CN(C)CCCCNC(=O)[C@@H]1C[C@@H]2C(=O)N[C@@H](Cc3ccccc3)C(=O)N2[C@@H]1c1cccc(OCCO)c1 , thanks.
Out: -1.29

In: Also need C[N+](C)(C)CCCCCCNC(=O)[C@H]1C[C@H]2C(=O)N[C@@H](Cc3ccccc3)C(=O)N2[C@H]1c1ccc(O)cc1 , thanks.
Out: 0.374
